Each recorded value in this set is attributed to ChEMBL document CHEMBL1201862.

Structures can show the parent of a compound that is named as a salt.
The compounds below have reported GI50 for HCT-15.

Which GI50 is reported with HCT-15 for this entry: COC(=O)[C@]1(C)CCC[C@@]2(C)C1CCC1=CC3(C(C)C)CCC12OO3 (some centres not stated) ? 40 µM

Tell me reported GI50 for `O=C1CN=C(C[N+](=O)[O-])c2ccccc21` , tested with HCT-15. > 100 µM

Observed GI50 on HCT-15 for `NCC(=O)N[C@H]1c2ccsc2/C(=N/O)[C@H]1O` , please. > 100 µM

Lab note: need GI50 with HCT-15 for entry `OCCN1c2ccccc2Sc2ccccc21` , please look it up. > 10 µM

Give GI50 (HCT-15) of the following compound: `Cc1ccc2c(c1)C(=O)C1(C2)Cc2ccc(C)cc2C1=O` > 100 µM

Write down the reported GI50 of CCOC(=O)C1(C#N)C(c2ccccc2)CC(O)(c2ccc(Cl)cc2)C(C(=O)c2ccc(Cl)cc2)C1c1ccccc1 (configuration not stated) , test system: HCT-15. > 100 µM

Record lookup: for HCT-15, what GI50 belongs to CCCCOC(C)(C)/C=C/C(O)[C@](C)(O)[C@H]1[C@H](O)C[C@@]2(C)[C@@H]3CCc4c(cc(OC5OC(CO)C(O)C(O)C5O)c(O)c4C)C3(C)C(=O)C[C@]12C (some centres not stated) ? > 100 µM

Fill in the recorded GI50 for this compound, with HCT-15 as test system: `CNC(=S)N/N=C(\C)c1nc2cccnc2[nH]1` 29.2 µM

Lookup: GI50 / HCT-15 / O=C1C(=C2CCCC2)CCC1CN1CCCCC1 (configuration not stated) 16.3 µM

Hi! What's the reported GI50 for `N#C/C(=C\c1cccc(O)c1)C(N)=O` on HCT-15? > 100 µM

Tell me reported GI50 for `CC1(C)NC(C)(C)/C(=N\O)C(=NO)/C1=N/O` , tested with HCT-15. > 100 µM

Give GI50 (HCT-15) of the following compound: `Cc1c2cc[n+](C)cc2c(C)c2c1[nH]c1ccc(OC(C)(C)C)cc12` > 100 µM

Give GI50 (HCT-15) of the following compound: `Cn1c(=O)c2nc3c(=O)n(C)c(=O)n(CC(N)=O)c3nc2n(C)c1=O` > 100 µM

// map O=[N+]([O-])C1C2C=CC(C2)[C@H]1c1ccc(Cl)cc1Cl (some centres not stated) to recorded GI50 (system: HCT-15) 43.3 µM

// lookup GI50 | system=HCT-15 | key= OC1(c2ccccc2)CCCCCCCCC(O)(c2ccccc2)CCCCCCCC1 (configuration not stated) > 100 µM

# value lookup — system HCT-15, readout GI50, item `NC(=S)NNC(=O)CCC(=O)Nc1ccc(Cl)cc1Cl` 50.4 µM

Give HCT-15 GI50 for C=C(C)C1CCC(C(=O)O)CC1 (configuration not stated) > 100 µM

API: value(readout= GI50, system= HCT-15, query= CCCCOC(=O)CC(CC(=O)OCCCC)(OC(C)=O)C(=O)OCCCC [ACETYLTRIBUTYL CITRATE] ) > 177 µM

Enter reported GI50 observed with HCT-15 for `Nc1nc(Cl)cc(NCC2(CCO)CCC2)n1` > 100 µM

Param readout = GI50; param system = HCT-15; param query = C=C1C(=O)OC2C1C(OC(=O)/C(C)=C/C)CC(O)(CCl)C1C(O)C=C(C)C21O (configuration not stated) ; response: value 3.72 µM

Find the measured GI50: item `OCCN1CCN(CCO)Cc2ccccc2OCCOc2ccccc2C1` , target or system HCT-15. > 100 µM

For the record C=CCCC1(O)C(O)C(CO)O[C@H](O[C@@]2(CO)OC(CO)C(O)C2O)C1O (some centres not stated) , what value of GI50 is listed for HCT-15? > 100 µM

----------
- System: MDA-MB-435
- PROTOCOL TEXT: NCI tumour cell line growth inhibition, 48 h
Calls of active or inactive are those of the source. No stated cut-off is given here; in the data, active = GI50 up to about 1.1 µM and inactive = higher.
Write down the outcome that applies. Available outcomes: 1.0 (active), 0.0 (inactive)

Assay outcome for CC(=O)[C@H]1CC[C@@H]2[C@]1(C)CC=C1[C@]23C=C[C@]2(C[C@@H](O)CC[C@]12C)C(C(=O)O)C3C(=O)O (stereo not given in full) : what was it? 0.0

Fill in: this test's call for COc1ccc(/C=C/c2cc(O)cc(OC3OC(CO)C(O)C(O)C3O)c2)cc1O (stereo not given) is ___ 0.0

Hey, what did the test say about C[C@]12CC[C@H](OC3OC(CO)C(O)C(O)C3O)C[C@H]1CC[C@@H]1[C@@H]2CC[C@]2(C)[C@@H](C3=CCOC3=O)CC[C@]12O (stereo not given in full) ? 0.0

State the result this test recorded for `C/C(=N\Nc1nc2ccccc2s1)c1cc2ccccc2cn1` . 0.0

Which result was noted for this compound in the test: CC(C)(CO)N1C(=O)c2ccccc2C1(O)c1ccc(Cl)cc1 (stereo not given) 0.0

Assay outcome for CCC1(C)C=Cc2c(cc(OC)c3c(=O)c4ccccc4n(C)c23)O1 (stereo not given) : what was it? 0.0

Please state the recorded outcome for this compound: `COC(=O)/C=C/c1ccc2c(c1)CC1(Cc3ccccc3C1)C2` 0.0

Entry `CNC(=S)N/N=C(\C)c1nc2cccnc2[nH]1` : call = ? 0.0

Assay outcome for COc1cc(OC2OC(CO)C(O)C(O)C2O)c2c(O)c3c(=O)cc(C)oc3cc2c1 (stereo not given) : what was it? 0.0

Dear all, I need the recorded test outcome for CCCCCCCCCCCCCCCCCCNc1ccn(C2OC(COP(=O)(O)OCC3OC(n4ccc(N)nc4=O)C(O)C3O)C(O)C2O)c(=O)n1 (stereo not given) , thank you. 0.0

Field: outcome | Entry: `COC(=O)CCC1(CCC(=O)OC)CCCCCCC(CCC(=O)OC)(CCC(=O)OC)C(=O)C1=O` 0.0

Outcome logged for CC1(C)C=CC(=O)C(O)C(C)(C)C1=O (stereo not given) in this assay: 0.0

Hey, what did the test say about `O=c1cc(N2CCCC2)[nH]c(=O)n1-c1ccccc1` ? 0.0

Hi, sorry to bother you, what did the test record for `N#C/C(=C1/c2cc([N+](=O)[O-])ccc2-c2c1cc([N+](=O)[O-])cc2[N+](=O)[O-])N1CCCCC1` ? 0.0

Dear all, I need the recorded test outcome for `CCOc1ccc(N/C(=C(/C(Cl)=C(/Cl)Nc2ccccc2)[N+](=O)[O-])n2nnc3ccccc32)cc1` , thank you. 0.0

Returns: the outcome recorded for `CCOC(=O)c1sc2nc(SC)nc3c2c1NC(=O)CN3c1cccc(F)c1` in this assay. 0.0

Would you mind telling me which call this test gave `COc1ccc(C2=C(N)c3c(Cl)cccc3C2=O)cc1` ? 0.0

Name the outcome recorded for `CSC1(SC2=NCCN2)SC2(NCCN2)S1` in the assay. 0.0

In this assay, the call recorded for `COc1ccc(C2=C(OC(C)=O)c3cccn3-c3ccccc3S2)cc1` was what? 1.0

Per the records of this test, what outcome belongs to `Cc1ccc(-c2cc(-c3ccc(Cl)cc3)nc(/N=C3\C(=O)N(CN4CCOCC4)c4ccccc43)n2)cc1` ? 0.0

----------
- Tested on: MDA-N
- PROTOCOL TEXT: NCI tumour cell line growth inhibition, 48 h
Active and inactive are the calls of the source. Cut-off read from the data, not from the text of the source: active = GI50 up to about 1.1 µM and inactive = higher.
MEASUREMENT NAME: GI50

Observed GI50 on MDA-N for O=C(C1C(c2ccccc2)N1C(c1ccccc1)c1ccccc1)C1C(c2ccccc2)N1C(c1ccccc1)c1ccccc1 (centres undefined) , please. 28.9 µM (inactive)

Field: GI50 (MDA-N). Entry: CC(NO)/C(=N/O)c1ccco1 (centres undefined) > 10 µM (inactive)

What reported GI50 corresponds to `COc1cc(C/C=C/c2ccccc2)c(OC)cc1O` on MDA-N? 17.9 µM (inactive)

Query for MDA-N: what GI50 does the record show for `COC(=O)C(=O)Nc1cc2c3c(c1)Oc1cccc4c1C3(C)c1c(cccc1O2)O4` ? > 100 µM (inactive)

----------
- Test system: BT-549
- PROTOCOL TEXT: NCI tumour cell line growth inhibition, 48 h
The source made the active and inactive calls. No stated cut-off is given here; in the data, active = GI50 up to about 1.1 µM and inactive = higher.
MEASUREMENT NAME: GI50

Query the reported GI50 for BT-549; item: CC(=O)OC1C(O)COC(O[C@H]2CC[C@]34C[C@]35CC[C@]3(C)C([C@@]6(C)CC[C@@H](C(C)(C)O)O6)[C@@H](O)C[C@@]3(C)C5C[C@H](OC3OCC(O)C(O)C3O)[C@H]4C2(C)C)C1OC1OCC(O)C(O)C1O (some centres undefined) > 100 µM (inactive)

Please tell me: GI50 of `Clc1ccc(/C=N/C23CC4CC(CC(C4)C2)C3)c(Cl)c1` , system BT-549? > 10 µM (inactive)

// map `N#Cc1c(-c2ccc([N+](=O)[O-])cc2)c(C#N)c(=O)n(NS(=O)(=O)c2ccccc2)c1O` to recorded GI50 (system: BT-549) > 100 µM (inactive)

Hi! What's the reported GI50 for `N#Cc1nc(COCCOCc2ccc(F)cc2)oc1N` on BT-549? > 100 µM (inactive)

# returns recorded GI50 (system: BT-549) for CCC1(O)CC(O)c2c(O)c3c(c(O)c2C1C(=O)OC)C(=O)c1cccc(O)c1C3=O (centres undefined) 6.85 µM (inactive)

Param readout= GI50; system= BT-549; entry= CC(C)(C)c1ccc(C(C)(C)C)c(N2C(=O)C3ON=C(c4ccc([N+](=O)[O-])cc4)C3C2=O)c1 (centres undefined) ; returns value. > 25 µM (inactive)

What reported GI50 corresponds to CN1c2ccccc2SC2C(c3ccccc3)=NOC21 (centres undefined) on BT-549? 26.6 µM (inactive)

Given the entry `O=c1cc(N2CCCC2)[nH]c(=O)n1-c1ccccc1` , what GI50 was observed with BT-549? > 100 µM (inactive)

What reported GI50 corresponds to Cc1ccc(S(=O)(=O)NC(=O)NC(CCC(N)=O)C(=O)O)cc1 (centres undefined) on BT-549? > 100 µM (inactive)
